Just for reference, PubChem BioAssay (NCI) is where these values come from.

system: NCI-H522 lung; test: NCI tumour cell line growth inhibition, 48 h
quantity kind: TGI (µM)
One number for each entry, in µM.

// worked examples, TGI included
COc1cc(NC(=O)CSc2nc3ccccc3c(=O)n2CCc2ccccc2)cc(OC)c1OC: 4.2
C=C(C)[C@@H]1CC[C@]2(C(=O)O)CC[C@]3(C)[C@H](CC[C@@H]4[C@@]5(C)C/C(=C/c6ccc(OC)cc6)C(=O)C(C)(C)[C@@H]5CC[C@]43C)[C@@H]12: 6.65
CC1OC(OC2C(CO)OC(O[C@H]3CC[C@@]4(C)C(=CC[C@H]5[C@@H]6C[C@@H]7O[C@](O)(CC[C@H](C)COC8OC(CO)C(O)C(O)C8O)[C@@H](C)[C@@H]7[C@@]6(C)CC[C@@H]54)C3)C(OC3OC(C)C(O)C(O)C3O)C2O)C(O)C(O)C1O (some centres not stated): 7.53
CC1OC(n2c3ccccc3c3c4c(c5c6ccccc6[nH]c5c32)C(=O)N(CCN2CCOCC2)C4=O)CC(O)C1O (configuration not stated): 11.1
COc1cc(-n2cnc(-c3ccc(Cl)cc3)c2)cc(OC)c1OC: 34.3
COc1ccc(OC)c(/C=C2\COc3ccc(O)c(O)c3C2=O)c1: 0.58

Give measured TGI for every item shown.
1. CNC(=O)NC(CCCCNC(=O)OCc1ccccc1)C(=O)OCc1ccccc1 (configuration not stated)
2. COC(=O)C1(Cc2cccc(C)c2)Cc2c(C)cccc2C1=O (configuration not stated)
3. Cn1ccnc1C(=O)/C=C/c1ccc(CC(=O)Nc2ccc(F)cc2)cc1
4. CCN(CC)CCCCNc1ncc2cc(-c3cc(OC)cc(OC)c3)c(NC(=O)NC(C)(C)C)nc2n1
5. CC(=O)OC1Oc2cc(C)c(C)cc2-c2oc(=O)c(-c3ccc(F)cc3)cc21 (configuration not stated)
6. C=C(C)[C@@H]1CCC2=C[C@H](OC2=O)[C@@]2(C)C[C@@H]2C(=O)/C=C(/C)C(=O)[C@H]1OC(C)=O
7. O=C(CN1C(=O)S/C(=C\C(Cl)=C\c2ccccc2)C1=O)NCCc1ccc(O)cc1

Out:
21.4
73.3
8.41
18.4
19
17.1
5.77

Give measured TGI for every item shown.
1. O=C(NC1CCCCC1)NS(=O)(=O)c1ccc(-n2nc3c(c2-c2ccc(Cl)cc2)Cc2ccccc2-3)cc1
2. O=C(Nc1ccc(OCc2nnc(-c3ccccc3)o2)c(F)c1)Nc1ccc(Cl)c(C(F)(F)F)c1
3. NC1=CC(=O)c2nc3ccccc3c3ccnc1c23

Out:
1. 52.5
2. 4.87
3. 17.3

====

For each record, write down the corresponding TGI.
tested on: HOP-92 NSCLC; experiment: NCI tumour cell line growth inhibition, 48 h
Numbers only, in µM.

// worked examples, TGI included
C=C(C)[C@@H]1CC[C@]2(C(=O)O)CC[C@]3(C)[C@H](CC[C@@H]4[C@@]5(C)C/C(=C/c6ccc(OC)cc6)C(=O)C(C)(C)[C@@H]5CC[C@]43C)[C@@H]12: 3.36
C/C(=C\CCc1ccsc1)CC/C=C(\C)CCCN1CCC(CO)CC1: 3.69

For the next question, use this compound.
In: What value of measured TGI is listed for `Cc1nc2c(O)cc3c4c(n(Cc5ccccc5)c3c2nc1C)C(=O)CCC4` ?
Out: 74
